Origin of values: patent US5817818A

# Target desc: human type 1 5α-reductase (Homo sapiens, UniProt P18405)
# Construct: made in house; host or cells: Sf9 insect cells, recombinant baculovirus; microsomes
# Sequence (P18405 whole entry): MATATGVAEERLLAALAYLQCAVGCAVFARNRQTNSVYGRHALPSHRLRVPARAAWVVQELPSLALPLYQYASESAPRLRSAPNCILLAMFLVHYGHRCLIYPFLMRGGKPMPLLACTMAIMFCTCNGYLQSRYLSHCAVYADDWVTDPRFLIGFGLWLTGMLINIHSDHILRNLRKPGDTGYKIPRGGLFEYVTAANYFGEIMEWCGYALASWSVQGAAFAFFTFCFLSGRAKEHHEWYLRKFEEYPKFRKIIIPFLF
# Experiment notes: Inhibition of human type 1 steroid 5α-reductase (microsomes; testosterone to DHT conversion)
# Format: biochemical
# Condition notes: 10 min preincubation, pH 7.0, 100 nM testosterone, 10-120 min, 1 mM NADPH; read-out: IC50 Human Type 1 5AR
pIC50: −log10 of the molar value.
Please respond with reported pIC50 for every item in the list.

Compound	Target desc	Result
CCC1(CC)CC1(NC(=O)[C@H]1CC[C@H]2[C@@H]3CC[C@H]4NC(=O)C=C[C@]4(C)[C@H]3CC[C@]12C)c1ccc(C(F)(F)F)cc1 (stereo partly drawn) [Compound 16]	human type 1 5α-reductase (Homo sapiens, UniProt P18405)	8.00 to 9.00
CC(C)(C)c1ccc(C2(NC(=O)[C@H]3CC[C@H]4[C@@H]5CC[C@H]6NC(=O)C=C[C@]6(C)[C@H]5CC[C@]34C)CCCCCC2)cc1 [Compound 13]	human type 1 5α-reductase (Homo sapiens, UniProt P18405)	8.00 to 9.00
CC(C)(C)c1ccc(C(C)(C)C)c(NC(=O)[C@H]2CC[C@H]3[C@@H]4CC[C@H]5NC(=O)CC[C@]5(C)[C@H]4CC[C@]23C)c1 [Compound 28]	human type 1 5α-reductase (Homo sapiens, UniProt P18405)	8.00 to 9.00
C[C@]12CCC(=O)N[C@@H]1CC[C@@H]1[C@@H]2CC[C@]2(C)[C@@H](C(=O)NC3(c4ccc(Cl)cc4)CCCC3)CC[C@@H]12 [Compound 1]	human type 1 5α-reductase (Homo sapiens, UniProt P18405)	8.00 to 9.00
CN1C(=O)CC[C@]2(C)[C@H]3CC[C@]4(C)[C@@H](C(=O)Nc5cc(C(C)(C)C)ccc5C(C)(C)C)CC[C@H]4[C@@H]3CC[C@@H]12 [Compound 29]	human type 1 5α-reductase (Homo sapiens, UniProt P18405)	> 9.00

For the next question, use this compound.
Prompt: GET /values?readout=pIC50&item= CCC1(CC)CC1(NC(=O)[C@H]1CC[C@H]2[C@@H]3CC[C@H]4NC(=O)C=C[C@]4(C)[C@H]3CC[C@]12C)c1ccc(-c2ccccc2)cc1 (stereo partly drawn) [Compound 21]
Response: > 9.00

----------
# Target desc: human type 1 5α-reductase (Homo sapiens)
# Construct: made in house; host or cells: Sf9 insect cells, recombinant baculovirus; microsomes
# Experiment notes: Inhibition of human type 1 steroid 5α-reductase (microsomes; testosterone to DHT conversion)
# Type: biochemical
# Condition notes: 10 min preincubation, pH 7.0, 100 nM testosterone, 10-120 min, 1 mM NADPH; read-out: IC50 Human Type 1 5AR
Kindly supply the reported IC50 values for the records listed here.

Compound	IC50
COc1ccc(C2(NC(=O)[C@H]3CC[C@H]4[C@@H]5CC[C@H]6NC(=O)C=C[C@]6(C)[C@H]5CC[C@]34C)CCCC2)cc1	1 to 10 nM
CC(C)(C)c1ccc(C2(NC(=O)[C@H]3CC[C@H]4[C@@H]5CC[C@H]6NC(=O)C=C[C@]6(C)[C@H]5CC[C@]34C)CCSCC2)cc1	< 1 nM
CC(C)(C)c1ccc(C2(NC(=O)[C@H]3CC[C@H]4[C@@H]5CC[C@H]6NC(=O)C=C[C@]6(C)[C@H]5CC[C@]34C)C3CCCC2CCC3)cc1 (stereo partly drawn)	1 to 10 nM
C[C@]12C=CC(=O)N[C@@H]1CC[C@@H]1[C@@H]2CC[C@]2(C)[C@@H](C(=O)NC3(c4ccc5c(c4)OCO5)CCCCC3)CC[C@@H]12	10 to 10000 nM
CN1C(=O)CC[C@]2(C)[C@H]3CC[C@]4(C)[C@@H](C(=O)NC5(c6ccc(Cl)cc6)CCCC5)CC[C@H]4[C@@H]3CC[C@@H]12	< 1 nM
COc1ccc(C2(NC(=O)[C@H]3CC[C@H]4[C@@H]5CC[C@H]6NC(=O)C=C[C@]6(C)[C@H]5CC[C@]34C)CCCCC2)cc1	1 to 10 nM

Hi, could you look up IC50 for each item in my list?
1. CC1(C)CCC(NC(=O)[C@H]2CC[C@H]3[C@@H]4CC[C@H]5NC(=O)C=C[C@]5(C)[C@H]4CC[C@]23C)(c2ccc(C(C)(C)C)cc2)CC1
2. C[C@H]1C[C@H]2NC(=O)C=C[C@]2(C)[C@H]2CC[C@]3(C)[C@@H](C(=O)Nc4cc(C(F)(F)F)ccc4C(F)(F)F)CC[C@H]3[C@H]12
3. CN1C(=O)CC[C@]2(C)[C@H]3CC[C@]4(C)[C@@H](C(=O)Nc5cc(C(F)(F)F)ccc5C(C)(C)C)CC[C@H]4[C@@H]3CC[C@@H]12
4. CC(C)(C)c1ccc(C2(NC(=O)[C@H]3CC[C@H]4[C@@H]5CC[C@H]6NC(=O)C=C[C@]6(C)[C@H]5CC[C@]34C)CCOCC2)cc1
5. CN1C(=O)CC[C@]2(C)[C@H]3CC[C@]4(C)[C@@H](C(=O)Nc5cc(C(F)(F)F)ccc5C(F)(F)F)CC[C@H]4[C@@H]3CC[C@@H]12

Response:
1. < 1 nM
2. 1 to 10 nM
3. < 1 nM
4. 1 to 10 nM
5. < 1 nM

Prompt: Lab request: please report IC50 under test system human type 1 5α-reductase (Homo sapiens) for `C[C@]12C=CC(=O)N[C@@H]1CC[C@@H]1[C@@H]2CC[C@]2(C)[C@@H](C(=O)NC3(c4cccc(C(F)(F)F)c4)CCCC3)CC[C@@H]12`
Response: 1 to 10 nM
